# system tested: human Nav1.8 (hNav1.8) ion channel (Homo sapiens, UniProt Q9Y5Y9)
# Sequence (Q9Y5Y9 whole entry): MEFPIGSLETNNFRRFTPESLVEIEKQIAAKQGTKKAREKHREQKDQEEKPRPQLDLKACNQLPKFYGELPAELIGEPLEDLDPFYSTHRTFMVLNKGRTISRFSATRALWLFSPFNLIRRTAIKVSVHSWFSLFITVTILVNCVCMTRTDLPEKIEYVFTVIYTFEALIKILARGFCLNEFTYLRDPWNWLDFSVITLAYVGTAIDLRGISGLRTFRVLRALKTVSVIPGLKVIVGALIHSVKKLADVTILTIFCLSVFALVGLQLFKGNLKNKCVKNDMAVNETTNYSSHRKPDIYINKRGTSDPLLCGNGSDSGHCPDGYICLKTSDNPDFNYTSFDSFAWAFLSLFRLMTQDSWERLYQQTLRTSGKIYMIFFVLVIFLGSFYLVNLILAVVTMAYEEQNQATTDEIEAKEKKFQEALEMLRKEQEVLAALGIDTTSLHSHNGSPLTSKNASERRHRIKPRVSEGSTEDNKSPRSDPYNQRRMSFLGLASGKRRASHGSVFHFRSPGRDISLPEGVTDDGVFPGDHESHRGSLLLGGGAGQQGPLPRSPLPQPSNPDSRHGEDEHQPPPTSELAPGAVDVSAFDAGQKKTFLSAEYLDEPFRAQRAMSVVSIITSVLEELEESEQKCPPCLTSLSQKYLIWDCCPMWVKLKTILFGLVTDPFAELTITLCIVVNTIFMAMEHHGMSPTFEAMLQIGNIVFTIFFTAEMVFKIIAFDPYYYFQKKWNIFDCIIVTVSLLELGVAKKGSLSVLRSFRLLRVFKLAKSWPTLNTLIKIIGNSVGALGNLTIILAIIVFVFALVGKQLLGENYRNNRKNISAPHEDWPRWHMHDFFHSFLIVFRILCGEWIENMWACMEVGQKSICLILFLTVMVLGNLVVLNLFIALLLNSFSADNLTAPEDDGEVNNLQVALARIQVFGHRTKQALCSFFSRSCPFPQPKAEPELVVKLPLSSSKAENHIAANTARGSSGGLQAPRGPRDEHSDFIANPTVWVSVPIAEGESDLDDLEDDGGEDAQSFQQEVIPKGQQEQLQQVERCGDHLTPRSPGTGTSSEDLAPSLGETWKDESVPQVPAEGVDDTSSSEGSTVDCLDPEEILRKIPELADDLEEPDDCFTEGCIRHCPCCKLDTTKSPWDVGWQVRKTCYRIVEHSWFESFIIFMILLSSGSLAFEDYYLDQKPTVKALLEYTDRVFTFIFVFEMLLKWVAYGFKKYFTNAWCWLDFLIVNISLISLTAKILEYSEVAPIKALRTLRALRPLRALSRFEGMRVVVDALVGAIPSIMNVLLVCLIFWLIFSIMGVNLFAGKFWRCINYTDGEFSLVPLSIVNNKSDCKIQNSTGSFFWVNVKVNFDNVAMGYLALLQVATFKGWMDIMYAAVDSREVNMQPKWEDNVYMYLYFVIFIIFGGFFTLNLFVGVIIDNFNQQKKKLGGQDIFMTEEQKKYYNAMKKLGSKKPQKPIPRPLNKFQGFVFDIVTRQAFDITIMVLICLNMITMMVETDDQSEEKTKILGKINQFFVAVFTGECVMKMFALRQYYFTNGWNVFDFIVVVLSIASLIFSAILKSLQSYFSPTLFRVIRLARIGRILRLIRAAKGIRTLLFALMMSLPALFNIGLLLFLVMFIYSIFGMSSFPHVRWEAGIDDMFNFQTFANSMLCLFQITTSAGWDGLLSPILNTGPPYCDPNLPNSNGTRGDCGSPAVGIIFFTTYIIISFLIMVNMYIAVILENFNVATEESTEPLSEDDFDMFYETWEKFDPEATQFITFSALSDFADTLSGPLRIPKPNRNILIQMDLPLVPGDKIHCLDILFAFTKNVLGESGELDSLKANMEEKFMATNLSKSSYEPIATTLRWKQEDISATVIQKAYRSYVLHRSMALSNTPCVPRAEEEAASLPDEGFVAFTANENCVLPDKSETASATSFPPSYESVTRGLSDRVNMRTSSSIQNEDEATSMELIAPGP
# protocol: Nav1.8 channel inhibition, estimated IC50 (one or more of: fluorescence inhibition assay, PatchXpress, IonFlux HT automated patch clamp)
# condition details: HEK293 cells stably expressing hNav1.8; method used per compound not stated; read-out: Activity range (estimated IC50)
pIC50: −log10 of the molar value.
Reported pIC50 is given for each of the following compounds.

Look over these answered cases.
{"compound": "CN(C)S(=O)(=O)c1cccc(NC(=O)c2cnc(C(F)(F)F)cc2Oc2ccc(OC(F)(F)F)cc2Cl)c1", "measure": "pIC50", "meas value": "6.00 to 6.30"}
{"compound": "COc1ccc(Oc2ncc(C(F)(F)F)cc2C(=O)Nc2ccc[n+]([O-])c2)c(Cl)c1", "measure": "pIC50", "meas value": "> 6.30"}
{"compound": "CS(=N)(=O)c1cccc(NC(=O)c2cnc(C(F)(F)F)cc2Oc2ccc(F)cc2F)c1 (centres unmarked)", "measure": "pIC50", "meas value": "< 6.00"}
{"compound": "CS(=O)(=O)c1cccc(NC(=O)c2cc(C(F)(F)F)cnc2Oc2ccc(SC(F)(F)F)cc2)c1", "measure": "pIC50", "meas value": "> 6.30"}
{"compound": "COc1cc(C)ccc1Oc1ncc(C(F)(F)F)cc1C(=O)Nc1cccc(S(C)(=O)=O)c1", "measure": "pIC50", "meas value": "< 6.00"}
{"compound": "CN=S(C)(=O)c1cccc(NC(=O)c2cc(C(F)(F)F)cnc2Oc2ccc(OC(F)(F)F)cc2)c1 (centres unmarked)", "measure": "pIC50", "meas value": "> 6.30"}
{"compound": "CS(=O)(=O)c1cccc(NC(=O)c2cc(C(F)(F)F)cnc2Oc2ccc(F)c(F)c2)c1", "measure": "pIC50", "meas value": "> 6.30"}

Consider the record given below.
// field: pIC50; key: COc1cc(F)ccc1Oc1ncc(C(F)(F)F)cc1C(=O)Nc1ccc(C#N)cc1 ; value = < 6.00
